# Test system: MOLT-4
# Assay Overview: NCI tumour cell line growth inhibition, 48 h
Calls of active or inactive are those of the source. Cut-off read from the data, not from the text of the source: active = GI50 up to about 1.1 µM and inactive = higher. Peptide text beside a SMILES is read from it. * marks the point of attachment. Boc = CC(C)(C)OC(=O)*
Parameter: GI50

Example entries and their recorded answers appear below.
Compound	Parameter	Value Reported
N#Cc1cc2c(cc1Cl)Sc1nccn1S2(=O)=O	GI50	0.667 µM (active)
CCOC(=O)C(NC(=O)NC(C(=O)OCC)C(=O)OCC)C(=O)OCC	GI50	> 100 µM (inactive)
CO[C@@H]1C[C@H]2[C@@H]3CC[C@H]([C@@H](C)COC(C)=O)[C@@]3(C)CC[C@@H]2[C@@]2(C)CC[C@H]3C[C@]312	GI50	15.3 µM (inactive)

Lookup: State the recorded GI50 for this entry: N#CC(N)(C(=O)C(=O)NCCCNC(=O)C(=O)C(N)(C#N)c1ccc(Cl)cc1)c1ccc(Cl)cc1 (centres undefined)
Found: > 100 µM (inactive)

Lookup: State the recorded GI50 for this entry: O=C(NC1=C(Cl)C(=O)c2ccccc2C1=O)C(=O)C(C(=O)c1ccc2ccccc2c1)C1OC(=O)c2ccccc21 (centres undefined)
Found: 2.06 µM (inactive)

Lookup: State the recorded GI50 for this entry: "COC(=O)c1ccccc1NC(=O)C(=O)CC(=O)c1ccccc1NC1=CC(=O)C(=O)c2ccccc21"
Found: 3.98 µM (inactive)

Lookup: State the recorded GI50 for this entry: Nc1ccc(COC(O)CN2CCCCC2)cc1[N+](=O)[O-] (centres undefined)
Found: > 100 µM (inactive)

Lookup: State the recorded GI50 for this entry: "C/N=C1\S/C(=N\c2ccc(N(C)C)cc2)N1C"
Found: 43 µM (inactive)

Lookup: State the recorded GI50 for this entry: CCOCC(NC(=O)C(CC(C)C)NC(=O)OC(C)(C)C)C(N)=O (stereo not drawn) (Boc-Leu-Ser(Et)-NH2; configuration not given here)
Found: > 100 µM (inactive)

###

# Tested on: MOLT-4
# Assay Overview: NCI tumour cell line growth inhibition, 48 h
Calls of active or inactive are those of the source. Cut-off read from the data, not from the text of the source: active = GI50 up to about 1.1 µM and inactive = higher.
Parameter: GI50

Lookup: Return GI50 measured with MOLT-4 given this molecule: "Cc1ccc(C)c(N2C(=O)C(=O)C(c3nc4ccccc4o3)C(=O)C2=O)c1"
Found: 27.2 µM (inactive)

###

# Test system: NCI-H460
# Assay Overview: NCI tumour cell line growth inhibition, 48 h
Activity calls are given as the source filed them. No stated cut-off is given here; in the data, active = GI50 up to about 1.1 µM and inactive = higher.
A correct response names exactly one class from active, inactive

A selection of reference data follows.
Compound	Assigned Label
COc1ccccc1/C=C/C1=NN(c2cccc(S(=O)(=O)O)c2)C2(C1)SCC(=O)N2c1nc2ccccc2s1 (centres undefined)	inactive
CCOC(=O)C12CCC(=O)N1N(C)c1ncccc1N2 (centres undefined)	inactive

Lookup: Check the results log: what was the call for CC12CCC(C(Br)(Br)C1=O)C2(C)C (centres undefined) ?
Found: inactive

Lookup: Check the results log: what was the call for COP1(=S)OCC2CCC[C@@H]2O1 (some centres undefined) ?
Found: inactive

Lookup: Check the results log: what was the call for "CC1(C)OC(=C(C#N)C#N)C(C#N)=C1/C=C/c1ccncc1" ?
Found: inactive

Lookup: Check the results log: what was the call for "O=C(O)c1cc(=O)c2c([nH]c3ccccc32)s1" ?
Found: inactive

Lookup: Check the results log: what was the call for "C=C1CC[C@@H](C)[C@](C)(CCc2ccoc2)C/C=C\C=C/1C(=O)O" ?
Found: inactive

Lookup: Check the results log: what was the call for CC1=CC(=O)CCC2(C)C1CC[C@@H]2OC=O (some centres undefined) ?
Found: inactive

Lookup: Check the results log: what was the call for CO[C@H]1[C@@H](O)[C@@H](C)O[C@@H](O[C@H]2CC[C@@]3(C)[C@H](CC[C@@H]4[C@@H]3CC[C@]3(C)[C@@H](C5=CC(=O)OC5)[C@@H](OC(C)=O)C[C@]43O)C2)[C@@H]1O [NERITALOSIDE] ?
Found: active

All figures here come from ChEMBL document CHEMBL1201862.
